// provenance: PubChem BioAssay (EPA / NIEHS)

Read-out: CD40, CD40 (gene 958)
Assay comment: BSK_SAg_CD40: BioMAP Diversity Plus: SAg Assay for CD40 Biomarker Activity (AID 2283088)
Cond: primary human HUVEC with PBMC; actives raise or lower the signal
Activity calls are given as the source filed them. How the source made its calls: active means hit-call score of the fitted dose curve at least 0.9, where 1 is the maximum; inactive means score below 0.9.
Log the outcome using a class from True = active, False = inactive

Answered examples (3):
> print(dat)
                                   compound  answer.label
1  COC(=O)c1ccccc1S(=O)(=O)NC(=O)Nc1nc(OC(F)F)cc(OC(F)F)n1         False
2  CCCCC(CC)COC(=O)c1ccccc1C(=O)O (stereo unspecified)         False
3  CCN(Cc1c(F)cccc1Cl)c1c([N+](=O)[O-])cc(C(F)(F)F)cc1[N+](=O)[O-]         False

Which result was noted for this compound in the test: COC(=O)c1ccccc1C(=O)O
True

Recorded test outcome, item O=C(O)C1(C(=O)Nc2ccc(Cl)cc2Cl)CC1
False

Answer briefly: the call reported for c1ccc2[nH]c(-c3cscn3)nc2c1 in this assay.
False

* * *

Assay comment: CCTE_Simmons_MITO_viability: CellTiter-Glo Viability Assessment for CCTE's HepG2 Seahorse XF Respirometric Screening Assay [post-hoc], Simmons Lab (AID 2284007)
Records with an inconclusive call do not appear. Calls of active or inactive are those of the source. How the source made its calls: active means hit-call score of the fitted dose curve at least 0.9, where 1 is the maximum; inconclusive means response in the unintended direction; inactive means score below 0.9.
Answer with one of the outcomes active, inactive

What was the test verdict on C=CCOC(Cn1ccnc1)c1ccc(Cl)cc1Cl (stereo not drawn) ?
inactive

Look up the recorded call for CC(C)CCCCCCc1ccc(O)cc1 in this test.
inactive

Kindly provide the recorded test outcome for the following compound: O=C(O)C1(C(=O)Nc2ccc(Cl)cc2Cl)CC1
active

Fill in: this test's call for CCCCC(CC)CN1C(=O)C2C3C=CC(C3)C2C1=O (stereo not drawn) is ___
inactive

Hey, what did the test say about C[C@]12C[C@H](O)[C@H]3[C@@H](CCC4=CC(=O)CC[C@@]43C)[C@@H]1CC[C@@H]2C(=O)CO ?
inactive

Each compound tested received a call. Report the one for CCCCOC(=O)[C@@H](C)Oc1ccc(Oc2ccc(C(F)(F)F)cn2)cc1 .
inactive

Hi, do you know how CCOC(=O)NCCOc1ccc(Oc2ccccc2)cc1 came out in this test?
inactive

Entry O=C(c1ccc(O)cc1O)c1ccc(O)cc1O : call = ?
inactive

* * *

Experimental system: CDK2 (gene 1017)
Assay comment: NVS_ENZ_hCDK2: NovaScreen (NVS) Enzymatic Assay for human Cyclin-Cependent Kinase 2 (CDK2) (AID 2283144)
Results filed as inconclusive are left out. Calls of active or inactive are those of the source. Rule for the calls: active = hit-call score of the fitted dose curve at least 0.9, where 1 is the maximum; inconclusive = response in the unintended direction; inactive = score below 0.9.
# output must be one of Yes = active, No = inactive

Worked cases, answers included:
> print(dat)
                    molecular.string  experimental.system  answer.label
1      O=C(c1ccc(O)cc1O)c1ccc(O)cc1O     CDK2 (gene 1017)           Yes
2      S=C([S-])NCCNC(=S)[S-].[Mn+2]     CDK2 (gene 1017)           Yes
3  O=C(O)C1(C(=O)Nc2ccc(Cl)cc2Cl)CC1     CDK2 (gene 1017)           Yes

Now, please, on to the next compound.
What is the recorded call for this compound in the test? N[C@@H](Cc1cc(I)c(Oc2ccc(O)c(I)c2)c(I)c1)C(=O)O
No

* * *

Assay comment: CCTE_Shafer_MEA_dev_burst_duration_mean: CCTE's Neural Network Formation Assay for Mean Burst Duration, Shafer Lab (AID 2284045);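 on AC50: curve fitted for loss meaning shorter burst duration than DMSO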
Calls of active or inactive are those of the source. How the source made its calls: active means hit-call score of the fitted dose curve at least 0.9, where 1 is the maximum; inactive means score below 0.9.
Quantity name: AC50

> print(dat)
                                   compound    recorded.result
1  Cc1nn(C)c(Oc2ccccc2)c1C=NOCc1ccc(C(=O)OC(C)(C)C)cc1  0.277 nM (active)
2                   CCN(CC)C(=O)c1cccc(C)c1           inactive
3                      CSC(=O)c1cccc2nnsc12           inactive
4  CC1(C)C(C=C(Cl)Cl)C1C(=O)OCc1cccc(Oc2ccccc2)c1 (stereo unspecified)           inactive
5      Oc1ccc(C(c2ccc(O)cc2)C(Cl)(Cl)Cl)cc1           inactive

Now let's try a different one.
Supply AC50 value. Item: CCCCC(CC)CN1C(=O)C2C3C=CC(C3)C2C1=O (stereo unspecified)
inactive

* * *

Experimental system: Heat shock factor protein 1 (Homo sapiens) (UniProt Q00613)
Sequence (Q00613 whole entry, looked up): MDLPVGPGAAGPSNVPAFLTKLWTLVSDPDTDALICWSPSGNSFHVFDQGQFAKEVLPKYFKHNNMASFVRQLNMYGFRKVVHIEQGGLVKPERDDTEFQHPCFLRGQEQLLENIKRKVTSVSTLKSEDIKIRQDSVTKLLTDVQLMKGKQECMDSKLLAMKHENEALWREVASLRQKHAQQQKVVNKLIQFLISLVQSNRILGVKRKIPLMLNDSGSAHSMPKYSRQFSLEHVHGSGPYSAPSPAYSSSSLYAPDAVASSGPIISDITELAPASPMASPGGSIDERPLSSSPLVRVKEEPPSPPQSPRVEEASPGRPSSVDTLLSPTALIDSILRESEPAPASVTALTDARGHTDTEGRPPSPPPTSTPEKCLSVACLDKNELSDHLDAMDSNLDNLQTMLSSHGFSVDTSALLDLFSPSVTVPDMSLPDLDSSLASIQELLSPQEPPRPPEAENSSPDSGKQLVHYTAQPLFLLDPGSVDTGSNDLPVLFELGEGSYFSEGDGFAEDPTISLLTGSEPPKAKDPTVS
Assay comment: ATG_HSE_CIS: Attagene CIS-FACTORIAL HepG2 Assay for human Heat Shock Transcription Factor 1 (HSE) (AID 2282953)
Cond: HepG2 HSE cis-reporter, Attagene RNA transcription; actives raise or lower the signal
Activity calls are given as the source filed them. How the source made its calls: active means hit-call score of the fitted dose curve at least 0.9, where 1 is the maximum; inactive means score below 0.9.
Give your call using only these classes: active, inactive

> print(dat)
                                   molecule  answer.label
1                   CCN(CC)C(=O)c1cccc(C)c1      inactive
2  COC(=O)CSc1cc(N=c2sc(=O)n3n2CCCC3)c(F)cc1Cl      inactive
3  CCOC(=O)[C@H](C)Oc1ccc(Oc2nc3ccc(Cl)cc3o2)cc1      inactive

Call for entry CCCN(CCC)C(=O)SCC :
inactive

Each molecule tested received a call. Report the one for CCSC(=O)N(CC(C)C)CC(C)C .
inactive

Assay outcome for CCC(C)OC(=O)N1CCCCC1CCO (centres undefined) : what was it?
inactive

Check the results log: what was the call for CCOC(=O)COc1cc(-n2ncc(C(F)(F)F)c(C)c2=O)c(F)cc1Cl ?
inactive

* * *

Experimental system: human Ephrin type-A Receptor 1 (EphA1), EPHA1 (gene 2041)
Assay comment: NVS_ENZ_hEphA1: NovaScreen (NVS) Enzymatic Assay for human Ephrin type-A Receptor 1 (EphA1) (AID 2283158);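 further: activity is signal loss versus DMSO meaning EphA1 kinase inhibition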
Inconclusive results are not listed. Activity calls are given as the source filed them. The calls were made as follows: active = hit-call score of the fitted dose curve at least 0.9, where 1 is the maximum; inconclusive = response in the unintended direction; inactive = score below 0.9.
Respond using exactly one of the listed classes: 1 (active), -1 (inactive)

Solved cases below.
> print(dat)
                molecular.string  answer.label
1  O=C(c1ccc(O)cc1O)c1ccc(O)cc1O             1
2     c1ccc2[nH]c(-c3cscn3)nc2c1            -1
3            N#CSCSc1nc2ccccc2s1            -1

Record request — test call for O=C(c1ccccc1)C1CCCCC1
-1

Look up the recorded call for CCOC(=O)NCCOc1ccc(Oc2ccccc2)cc1 in this test.
-1

* * *

Assay comment: APR_HepG2_p53Act_72hr: Apredica 72-hour HepG2 Assay for p53 Activation (AID 2282923);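 further: average cellular p53 protein immunofluorescence intensity in HepG2 cells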
Cond: high-content imaging, actives raise or lower the signal
Active and inactive are the calls of the source. How the source made its calls: active means hit-call score of the fitted dose curve at least 0.9, where 1 is the maximum; inactive means score below 0.9.
Result category, one only: active, inactive

Use these answered entries as a reference point.
> print(dat)
                                    compound  answer.label
 1  C[C@]12CC[C@@H]3c4ccc(O)cc4C[C@@H](CCCCCCCCCS(=O)CCCC(F)(F)C(F)(F)F)[C@H]3[C@@H]1CC[C@@H]2O (stereo partly drawn)      inactive
 2  COC(=O)CSc1cc(N=c2sc(=O)n3n2CCCC3)c(F)cc1Cl      inactive
 3                       c1ccc(Nc2ccccc2)cc1      inactive
 4             O=C(c1ccc(O)cc1O)c1ccc(O)cc1O      inactive
 5  Cc1nn(C)c(Oc2ccccc2)c1C=NOCc1ccc(C(=O)OC(C)(C)C)cc1      inactive
 6  CC(=O)[C@H]1CC[C@H]2[C@@H]3CCC4=CC(=O)CC[C@]4(C)[C@H]3CC[C@]12C        active
 7  CCCCC(CC)CN1C(=O)C2C3C=CC(C3)C2C1=O (stereo not drawn)      inactive
 8  CCCCC(CC)COC(=O)c1ccccc1C(=O)O (stereo not drawn)      inactive
 9  C#CCOC(=O)[C@@H](C)Oc1ccc(Oc2ncc(Cl)cc2F)cc1      inactive
10                        CCNc1nc(N)nc(Cl)n1      inactive

What call does the record list for N[C@@H](Cc1cc(I)c(Oc2ccc(O)c(I)c2)c(I)c1)C(=O)O ?
inactive

Hello, I am checking results. What call was entered for CCCOC(=O)c1ccc(C(=O)OCCC)nc1 ?
inactive

GET /call?item= COC(=O)c1ccc(I)cc1S(=O)(=O)NC(=O)Nc1nc(C)nc(OC)n1 returns the recorded outcome of this test.
inactive

Which result was noted for this compound in the test: COc1nc(C)nc(NC(=O)NS(=O)(=O)c2ccccc2OCCCl)n1
inactive

What call does the record list for COC(=O)c1ccc(CNS(C)(=O)=O)cc1S(=O)(=O)NC(=O)Nc1nc(OC)cc(OC)n1 ?
inactive
